These entries and their values trace back to the supplement of paper PMC9170038.

# Test system: MS2 coat protein
# Run Description: apparent KD of MS2 coat protein; designed switch direction (-1 OFF switch, 1 ON switch): 1; higher = weaker reporter binding
# Condition Notes: input ligand: FMN 200 uM
Would you mind labelling by apparent KD of MS2 coat protein? At or over 300 nM is 1, under is -1.

Previously resolved entries follow.
>  <Residue Sequence>
GCGAAGAGGUAAGGAUAUUCAUGGCGGAGACAUGAGGAUCACCCAUGUAGGAGACGAAAUCUAAGGGAGAAGGUACCAGGACGC [AK SSNG2-V2-14] (Eterna round: R96, puzzle: Same State NG 2)

>  <Assay System>
MS2 coat protein

>  <Group Label>
-1

$$$$
>  <Residue Sequence>
AGUGGUGGUGCAGGAUAUGCCUCAAAAGCAUGGGUAGAAGGGCAAUACAAAGAAACUCUGACAUGAGGAUCACCCAUGUAGCAA [Eternabot solution 43] (Eterna round: R96, puzzle: Same State NG 1)

>  <Assay System>
MS2 coat protein

>  <Group Label>
1

$$$$

Now examine the next entry.
I'd appreciate it if you could say whether ACAUGAGACUUAGGAUAUCUUGUACCUACAUGUGACAUGAGGAUCACCCAUGUGGUAAGUAUGACAGAGAAGGAAGAGAUAUGU [Equivalance 68 - Jieux - Same State NG 2] (Eterna round: R96, puzzle: Same State NG 2) has apparent KD of MS2 coat protein at least equal to 300 nM.
-1

---

Recorded measurements of apparent KD of MS2 coat protein, one per entry
# Tested on: MS2 coat protein
# Run Description: apparent KD of MS2 coat protein; designed switch direction (-1 OFF switch, 1 ON switch): -1; higher = weaker reporter binding
# Condition Notes: Eterna round: R95; input ligand: microRNA oligo, concentration not stated
Express your answer in nM, writing the number without its unit.

Answered cases to consult:
>  <Residue Sequence>
AAUAACAGAGGAUAUACUAUUUUAUGUGUUUGUUGUUUUGAACAUGAGGAUCACCCAUGUAGAAGGCUGAAUGA [JMF 69] (puzzle: Exclusion 2)

>  <Property Measured>
apparent KD of MS2 coat protein

>  <Recorded Number>
25.3

$$$$
>  <Residue Sequence>
AGUAACAGAGGAUAUACUAUUUUAUGUGUUUAUUGUUUUAAACAUGAGGAUCACCCAUGUAGAAGGCUGAAUAA [JMF 86] (puzzle: Exclusion 2)

>  <Property Measured>
apparent KD of MS2 coat protein

>  <Recorded Number>
28.4

$$$$
>  <Residue Sequence>
AAGACCAGAGGAUAUCAGACGCGGCACAUGAGGAUCACCCAUGUAUUCCCGUCUGCCGACUGAGAAGGUUGGAAAG [Xeusbi] (puzzle: Exclusion 5)

>  <Property Measured>
apparent KD of MS2 coat protein

>  <Recorded Number>
9.41

$$$$
>  <Residue Sequence>
CAUACACAUGAGGAUCACCCAUGUGAGGAUAUGCGUACGUUGUCAGUAGGCGACGUGCGCAGAAGGCGCGUGUU [Mat - Mod of JL D90] (puzzle: Exclusion 1)

>  <Property Measured>
apparent KD of MS2 coat protein

>  <Recorded Number>
46.3

$$$$
>  <Residue Sequence>
GCAGGUUAAGUCAGGAUAUACCUAUGGAUACAUAGGUAGAAGGGACAUGAGGAUCACCCAUGUGUCUCGCCUGC [Fiskers BMX 4 - 70] (puzzle: Brourd's mod of Exclusion 4)

>  <Property Measured>
apparent KD of MS2 coat protein

>  <Recorded Number>
62.7

$$$$

Form field: reported apparent KD of MS2 coat protein of CAUUCGCAAGGAUAUUAUUGCAGUGACAUGAGGAUCACCCAUGUGUUCGUCAUGCAUCGAUGAGAAGGUGCAAGAC [Orater] (puzzle: Exclusion 5)
36.4
